All figures here come from PubChem BioAssay AID1996.

# EXPERIMENTAL SETUP: buffer; pH 7.4; 200.0 µM
MEASURED PARAMETER: solubility kinetic

{"columns": ["COMPOUND", "OBSERVED VALUE"],
 "data": [
  ["CS(=O)(=O)N1CCCC(C(=O)Nc2ccc(F)cc2)C1 (centres undefined)", "> 45.1 µg/mL"],
  ["Cc1c(C)c(C)c2[nH]c(-c3ccc4c(c3)OCO4)nc2c1C", "< 0.3 µg/mL"],
  ["Cc1cc(NC(=O)c2cccc(S(=O)(=O)Nc3cccc(C(=O)O)c3)c2)no1", "> 60.2 µg/mL"],
  ["O=C(Nc1ccc(F)cc1)C1CCN(C(=O)c2ccc(F)cc2)CC1", "> 51.7 µg/mL"],
  ["COc1ccc(NC(=O)COC(=O)CC2CCCCC2)cc1", "> 45.8 µg/mL"],
  ["O=C(OCC(=O)N1CCOCC1)c1ccccc1OCc1ccc(Cl)cc1", "> 58.5 µg/mL"],
  ["Cc1ccc2c(c1)sc(=NC(=O)c1cccs1)n2C", "< 0.3 µg/mL"],
  ["COCC(=O)NC1CCCCCC1", "> 27.8 µg/mL"],
  ["CCN(CC)CCSc1nc2ccc(OC)cc2[nH]1.Cl", "> 52.8 µg/mL"],
  ["CCOC(=O)N1CCC(NC(=O)CCCC(=O)O)CC1", "> 42.9 µg/mL"],
  ["Cc1cccc(NC(=O)CCCN2C(=S)NC(C)(C)CC2C)c1C (centres undefined)", "> 52.1 µg/mL"],
  ["O=C(c1cc(-c2ccccc2O)on1)N1CCOCC1", "> 41.1 µg/mL"],
  ["Cc1cnc(C(=O)NC(Cc2ccccc2)c2ccccc2)cn1 (centres undefined)", "0.9 µg/mL"],
  ["CCN(CC)S(=O)(=O)c1ccc(/C=C/C(=O)OCC(=O)NCc2ccco2)cc1", "17.3 µg/mL"],
  ["CCCCn1c(N)c(N(CCC(C)C)C(=O)COC(=O)/C=C/c2ccc(F)cc2)c(=O)[nH]c1=O", "8.5 µg/mL"],
  ["COc1cc([N+](=O)[O-])ccc1NC(=O)COC(=O)C=C(C)C", "3.6 µg/mL"],
  ["COc1cc(OC)c(OC)cc1CNCc1ccco1", "38.7 µg/mL"],
  ["COc1ccccc1N1CCN(C(=S)NC(=O)/C=C/c2ccccc2)CC1", "1.3 µg/mL"],
  ["COc1cc(/C=C/C(=O)Nc2ccc(OC)c(S(=O)(=O)N3CCOCC3)c2)ccc1OCC#N", "7.1 µg/mL"],
  ["CCN(CC)c1ccc(CNCCc2ccccc2F)cc1.Cl", "> 50.5 µg/mL"],
  ["Cc1ccc(S(=O)(=O)NCc2csc(C)n2)cc1", "> 42.4 µg/mL"],
  ["CN1CCN(C(=O)c2cc3sc4ccccc4c3s2)CC1", "> 47.5 µg/mL"],
  ["Cc1ccc(CNC(=O)c2ccc3c(c2)NC(=O)CS3)cc1", "3.1 µg/mL"],
  ["CC(CCc1ccccc1)NC(=O)CCC(=O)N1CCC(C(=O)O)CC1 (centres undefined)", "> 54.1 µg/mL"],
  ["CCOC(=O)CSc1nc2ccccc2n2c(C)nnc12", "> 45.4 µg/mL"],
  ["Cn1c(=O)c2cc3ccccc3nc2n(C)c1=O", "4.3 µg/mL"],
  ["CC1=C(C(=O)Nc2cccc(C(=O)NC(C)C)c2)SCCO1", "47.9 µg/mL"],
  ["Cc1ccc2nc(CCl)[n+]([O-])c(-c3ccccc3)c2c1", "27.8 µg/mL"],
  ["COc1ccc(Nc2cc(Nc3ccc(OC)cc3)ncn2)cc1", "< 0.2 µg/mL"],
  ["CC(C)(C)C(=O)Nc1ccc(S(=O)(=O)Nc2nccs2)cc1", "> 50.9 µg/mL"],
  ["CC(Oc1cccnc1[N+](=O)[O-])C(=O)Nc1ccc(Cl)cn1 (centres undefined)", "17 µg/mL"],
  ["Cc1ccsc1C1C(C#N)=C(N)N(N(C)C)C2=C1C(=O)CCC2 (centres undefined)", "> 49.3 µg/mL"],
  ["CCCCNC(=O)C1CCCN(S(=O)(=O)CC)C1 (centres undefined)", "> 41.5 µg/mL"],
  ["O=C(CCl)Nc1cccc(Oc2cnccn2)c1", "39.4 µg/mL"]
]}
